FYI, the data here is from paper PMC10353187.

target: hCA I (Homo sapiens, UniProt P00915)
Sequence (P00915 whole entry): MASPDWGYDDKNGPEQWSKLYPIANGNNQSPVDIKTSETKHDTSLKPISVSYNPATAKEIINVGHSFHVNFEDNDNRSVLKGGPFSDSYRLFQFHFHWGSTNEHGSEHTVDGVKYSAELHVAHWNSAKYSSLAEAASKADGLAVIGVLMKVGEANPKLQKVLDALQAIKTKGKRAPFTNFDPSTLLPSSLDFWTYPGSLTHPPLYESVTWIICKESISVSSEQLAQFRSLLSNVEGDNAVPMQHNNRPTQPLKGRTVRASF
reportedMetric: log10(Ki) (log10 of the value in µM)

| compound | assayTarget | log10(Ki) |
| --- | --- | --- |
| NS(=O)(=O)c1nnc(NC=C2C(=O)Nc3ccccc32)s1 | hCA I (Homo sapiens, UniProt P00915) | -2.08 |
| O=C1Nc2ccccc2C1=CNc1ccc(CNc2ccc(S(=O)(=O)Nc3ncccn3)cc2)cc1 [Compound 11b] | hCA I (Homo sapiens, UniProt P00915) | 0.96 |
| NS(=O)(=O)c1ccc(NC=CC(=O)c2ccc(NC=C3C(=O)Nc4ccccc43)cc2)cc1 [Compound 13a] | hCA I (Homo sapiens, UniProt P00915) | -0.32 |
| NS(=O)(=O)OC=C1C(=O)Nc2ccccc21 [Compound 7, (2-Oxoindolin-3-ylidene)methyl sulfamate] | hCA I (Homo sapiens, UniProt P00915) | 0.80 |
| NS(=O)(=O)c1ccc(NC(=O)Nc2ccc(NC=C3C(=O)Nc4ccccc43)cc2)cc1 [Compound 15a] | hCA I (Homo sapiens, UniProt P00915) | -0.07 |
